target.or.system: Mu-type opioid receptor (Homo sapiens)
Sequence (P35372 whole entry): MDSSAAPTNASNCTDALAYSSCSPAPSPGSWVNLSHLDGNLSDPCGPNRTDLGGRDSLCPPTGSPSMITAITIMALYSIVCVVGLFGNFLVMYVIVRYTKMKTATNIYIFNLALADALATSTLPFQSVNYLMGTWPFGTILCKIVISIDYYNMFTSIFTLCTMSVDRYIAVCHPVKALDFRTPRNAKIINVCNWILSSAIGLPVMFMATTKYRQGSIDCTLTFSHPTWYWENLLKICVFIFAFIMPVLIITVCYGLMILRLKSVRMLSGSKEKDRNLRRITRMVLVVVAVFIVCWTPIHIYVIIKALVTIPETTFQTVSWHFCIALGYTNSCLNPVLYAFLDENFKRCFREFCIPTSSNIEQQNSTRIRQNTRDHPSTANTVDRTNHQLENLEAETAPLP
procedure.summary: Agonist activity at mu opioid receptor (unknown origin) expressed in human HEK293 cells assessed as […] in cAMP accumulation using [3H]-cAMP as substrate measured after 30mins by liquid scintillation counting method
Labelling: EC50 reported below 300 nM becomes t; at or above becomes f.

C=C(C(N)=O)[C@@H](NC(=O)[C@H](Cc1c[nH]c2ccccc12)NC(=O)[C@@H](CNC(C)=O)NC(=O)[C@@H](N)Cc1ccc(O)cc1)c1ccco1 | t
C=C(C(N)=O)[C@@H](NC(=O)[C@H](Cc1c[nH]c2ccccc12)NC(=O)[C@@H](CCCNC(N)=O)NC(=O)[C@@H](N)Cc1ccc(O)cc1)c1ccco1 | t
C=C(C(N)=O)[C@@H](NC(=O)[C@H](Cc1c[nH]c2ccccc12)NC(=O)[C@@H](CCCCN)NC(=O)[C@@H](N)Cc1ccc(O)cc1)c1ccco1 | f
C=C(C(N)=O)[C@@H](NC(=O)[C@H](Cc1ccccc1)NC(=O)[C@@H](CN)NC(=O)[C@@H](N)Cc1ccc(O)cc1)c1ccco1 | f
C=C(C(N)=O)[C@@H](NC(=O)[C@H](Cc1ccccc1)NC(=O)[C@@H](CNC(C)=O)NC(=O)[C@@H](N)Cc1ccc(O)cc1)c1ccco1 | f

Now consider a different compound.
# strict comparison: is reported EC50 < 300 nM? input = C=C(C(N)=O)[C@@H](NC(=O)[C@H](Cc1c[nH]c2ccccc12)NC(=O)[C@@H](CCC)NC(=O)[C@@H](N)Cc1ccc(O)cc1)c1ccco1 f
